pIC50 reference
Target: fMet-Leu-Phe receptor (Homo sapiens)
Sequence (P21462 whole entry): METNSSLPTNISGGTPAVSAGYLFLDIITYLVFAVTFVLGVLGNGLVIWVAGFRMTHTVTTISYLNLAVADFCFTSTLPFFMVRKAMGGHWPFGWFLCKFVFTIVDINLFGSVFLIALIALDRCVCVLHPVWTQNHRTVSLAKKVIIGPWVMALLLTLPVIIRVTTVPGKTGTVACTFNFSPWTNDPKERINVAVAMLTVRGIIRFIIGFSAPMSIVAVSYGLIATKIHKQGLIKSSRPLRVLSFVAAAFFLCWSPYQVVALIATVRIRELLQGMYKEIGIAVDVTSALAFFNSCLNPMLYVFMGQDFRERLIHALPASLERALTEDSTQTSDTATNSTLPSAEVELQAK
Experiment: Antagonist activity at human FPR1 in human neutrophils assessed as inhibition of fMLF-stimulated intracellular calcium mobilisation by FLIPR assay
pIC50: −log10 of the molar value.
Observation type: pIC50

                                    molecule  observation_type  recorded_measurement
 0  Cc1ccc(S(=O)(=O)Nc2c(C(=O)NCc3ccccc3)cnn2-c2ccccc2)cc1             pIC50                  5.00
 1  CCC(CC)NC(=O)c1cnn(C(C)C)c1NS(=O)(=O)c1ccc(C)cc1             pIC50                  5.00
 2  CCC(CC)NC(=O)c1ncn(-c2ccccc2)c1NS(=O)(=O)c1ccc(C)cc1             pIC50                  5.80
 3  Cc1nn(-c2ccccc2)c(NS(=O)(=O)C2CCCCC2)c1C(=O)N[C@@H](C)C(C)(C)C             pIC50                  6.00
 4  CCC(CC)NC(=O)c1cnn(Cc2ccccc2)c1NS(=O)(=O)c1ccc(C)cc1             pIC50                  5.30
 5  CCC(CC)NC(=O)c1cn(-c2ccccc2)nc1NS(=O)(=O)c1ccc(C)cc1             pIC50                  5.00
 6  CCC(CC)NC(=O)c1cnn(-c2ccccc2)c1NS(=O)(=O)c1ccc(-c2cnco2)cc1             pIC50                  5.30
 7  Cc1nn(-c2ccc(F)cc2)c(NS(=O)(=O)c2ccc(C#N)cc2)c1C(=O)N[C@@H](C)C(C)(C)C             pIC50                  7.60
 8  Cc1ccc(S(=O)(=O)Nc2c(C(=O)NC3CCOCC3)c(C)nn2-c2ccccc2)cc1             pIC50                  5.30
 9  CCCC(CC)NC(=O)c1cnn(-c2ccccc2)c1NS(=O)(=O)c1ccc(C)cc1 (configuration not stated)             pIC50                  6.50
10  Cc1ccc(S(=O)(=O)Nc2c(C(=O)N[C@@H](C)C(C)(C)C)c(C)nn2-c2ccccc2)cc1             pIC50                  7.10
11  Cc1ccc(S(=O)(=O)Nc2c(C(=O)NC3CCCCC3C)cnn2-c2ccccc2)cc1 (mixture of isomers)             pIC50                  6.00
12  CCC(CC)NC(=O)c1cnn(-c2ccccc2)c1NS(=O)(=O)c1ccccc1             pIC50                  5.30
13  CCN(C(=O)c1cnn(-c2ccccc2)c1NS(=O)(=O)c1ccc(-c2cnco2)cc1)C1CCCCC1             pIC50                  7.10
14  CCC(CC)NC(=O)c1c(C)nn(-c2ccccc2)c1NS(=O)(=O)c1ccc(C)cc1             pIC50                  6.30
15  Cc1ccc(S(=O)(=O)Nc2c(C(=O)N(C)C3CCCCC3)c(C)nn2-c2ccccc2)cc1             pIC50                  5.50
16  Cc1ccc(S(=O)(=O)Nc2c(C(=O)NC(C)C(C)(C)C)c(C)nn2-c2ccccc2)cc1 (configuration not stated)             pIC50                  6.90
17  CCC(C)NC(=O)c1c(C)nn(-c2ccccc2)c1NS(=O)(=O)c1ccc(C)cc1 (configuration not stated)             pIC50                  6.80
18  Cc1ccc(S(=O)(=O)Nc2c(C(=O)NC3CCCCC3)cnn2-c2ccccc2)cc1             pIC50                  5.40
19  CCC(CC)NC(=O)c1cnn(-c2ccccc2)c1NS(=O)(=O)C1CCCC1             pIC50                  5.30
20  CCC(CC)NC(=O)c1nnn(-c2ccccc2)c1NS(=O)(=O)c1ccc(C)cc1             pIC50                  5.40
21  Cc1ccc(S(=O)(=O)Nc2c(C(=O)N[C@H](C)C(C)(C)C)c(C)nn2-c2ccccc2)cc1             pIC50                  6.30
22  CCC(CC)NC(=O)c1cnn(-c2ccccc2)c1NS(=O)(=O)c1ccc(C)cc1             pIC50                  5.70
23  Cc1ccc(S(=O)(=O)Nc2c(C(=O)N[C@@H](C)C(C)(C)C)c(C(F)(F)F)nn2-c2ccccc2)cc1             pIC50                  7.60
24  Cc1ccc(S(=O)(=O)Nc2c(C(=O)NC3CCCCC3C)c(C)nn2-c2ccccc2)cc1 (mixture of isomers)             pIC50                  6.80
25  CCC(CC)NC(=O)c1cnn(-c2ccccc2)c1NS(=O)(=O)c1ccccc1C             pIC50                  5.20
26  Cc1ccc(S(=O)(=O)Nc2c(C(=O)N(C)C3CCCCC3)cnn2-c2ccccc2)cc1             pIC50                  5.80
27  Cc1nn(-c2ccc(F)cc2)c(NS(=O)(=O)c2cccnc2)c1C(=O)N[C@@H](C)C(C)(C)C             pIC50                  6.00
28  Cc1nn(-c2ccc(F)cc2)c(NS(=O)(=O)c2ccc(C(F)(F)F)cc2)c1C(=O)N[C@@H](C)C(C)(C)C             pIC50                  7.90
29  Cc1ccc(S(=O)(=O)Nc2c(C(=O)NC(C)C)c(C)nn2-c2ccccc2)cc1             pIC50                  5.20
30  Cc1ccc(S(=O)(=O)Nc2c(C(=O)NC3CCCCC3)c(C)nn2-c2ccccc2)cc1             pIC50                  6.10
31  Cc1ccc(S(=O)(=O)Nc2c(C(=O)NCC(C)(C)C)c(C)nn2-c2ccccc2)cc1             pIC50                  5.70
32  CCC(CC)NC(=O)c1cnn(-c2ccccc2Cl)c1NS(=O)(=O)c1ccc(C)cc1             pIC50                  5.00
33  CCC(CC)NC(=O)c1cnn(-c2ccc(C#N)cc2)c1NS(=O)(=O)c1ccc(C)cc1             pIC50                  4.80
34  Cc1ccc(S(=O)(=O)Nc2c(C(=O)NC3CCOCC3)cnn2-c2ccccc2)cc1             pIC50                  5.00
35  CCC(CC)NC(=O)c1cnn(-c2ccccn2)c1NS(=O)(=O)c1ccc(C)cc1             pIC50                  4.70
36  Cc1ccc(S(=O)(=O)Nc2c(C(=O)NCc3ccc(C)cc3C)cnn2-c2ccccc2)cc1             pIC50                  6.10
